# target.or.system: Recombinant protein Claudin 18.2
# Sequence (chain, as listed by the source limits assumed, form in doubt): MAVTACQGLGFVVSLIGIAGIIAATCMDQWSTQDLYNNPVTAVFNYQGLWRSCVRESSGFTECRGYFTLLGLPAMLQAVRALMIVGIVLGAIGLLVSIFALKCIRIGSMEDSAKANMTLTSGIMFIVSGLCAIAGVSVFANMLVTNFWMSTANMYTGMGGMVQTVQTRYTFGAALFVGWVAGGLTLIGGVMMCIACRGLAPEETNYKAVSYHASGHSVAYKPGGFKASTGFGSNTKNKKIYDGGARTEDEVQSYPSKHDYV
# measurement.notes: ELISA on plate-coated recombinant Claudin 18.2, OD450; Kd table under the graph, no unit in the table, unit from the x axis log[antibody] nM
quantity.name: Kd (nM)
Write it as a number; the unit nM goes unstated.

Given Anti-CLDN 18.2-5C9ob (humanized antibody h5C9ob) (antibody, human IgG1, V domains shown) VH: EVQLVESGGGLVQPGGSLRLSCAVSGYTFSMNWVRQAPGKGLEWVAWINMYTGEPTYADDFKGRFTISRDDSKNTLYLQMNSLRAEDTAVYYCARLYNGNSLDYWGQGTLVTVSS VL: DIQMTQSPSSLSASVGDRVTITCKSSQSLLNSGNQKSYLTWYQQKPGKAPKLLIYWASTLESGVPSRFSGSGSGTDYTLTISSLQPEDFATYYCQNAYFFPFTFGQGTKVEIK , state its recorded Kd.
0.129
